# Test system: Escherichia coli TOP10
# assayDetails: shrunken log2 fold change of peptide-encoding DNA abundance (4.5 h post-induction vs induction); higher = less antimicrobial activity (less host growth inhibition)
# conditionNotes: time post-induction: 4.5 h; library: site-saturation at positions 5, 18, 19, 20
Kindly return yes (1) if reported shrunken log2 fold change is no lower than 0.003; return no (0) if it is lower.

Qu. Check this sequence for shrunken log2 fold change at or above 0.003: RRIRVRPPRLPRPRPRPKAMPRP
Ans. yes (1)

Qu. Could you tell me if the measured shrunken log2 fold change of RRIRQRPPRLPRPRPRPWRMPRP reaches 0.003 or more?
Ans. no (0)

Qu. # bool: shrunken log2 fold change of RRIRWRPPRLPRPRPRPGNEPRP >= 0.003
Ans. yes (1)

Qu. Could you please find out whether RRIRTRPPRLPRPRPRPDDDPRP has shrunken log2 fold change that meets 0.003 or exceeds it?
Ans. no (0)

Qu. # bool: shrunken log2 fold change of RRIRSRPPRLPRPRPRPAMKPRP >= 0.003
Ans. no (0)

Qu. For this sequence, is measured shrunken log2 fold change 0.003 or higher? RRIRSRPPRLPRPRPRPWMWPRP
Ans. no (0)

Qu. Is shrunken log2 fold change for RRIRERPPRLPRPRPRPPQNPRP at or above 0.003?
Ans. yes (1)

Qu. Hi team, for RRIRTRPPRLPRPRPRPASPPRP , is the recorded shrunken log2 fold change at or above 0.003?
Ans. yes (1)

Qu. Textbook exercise: given the entry RRIRWRPPRLPRPRPRPYHPPRP , state whether its shrunken log2 fold change is greater than or equal to 0.003.
Ans. no (0)

Qu. Exam item: decide whether the reported shrunken log2 fold change for RRIRMRPPRLPRPRPRPGAGPRP is at least 0.003.
Ans. yes (1)

Qu. API: above_or_equal(metric=shrunken log2 fold change, cutoff=0.003) for item RRIRFRPPRLPRPRPRPDEIPRP
Ans. no (0)

Qu. Entry RRIRTRPPRLPRPRPRPEMVPRP : is its shrunken log2 fold change no less than 0.003?
Ans. yes (1)

Qu. Please tell me: is the sequence RRIRYRPPRLPRPRPRPQNVPRP at or over 0.003 in terms of shrunken log2 fold change?
Ans. no (0)

Qu. Reported shrunken log2 fold change at or above 0.003? RRIRSRPPRLPRPRPRPYHNPRP
Ans. no (0)

Qu. Could you tell me if the measured shrunken log2 fold change of RRIRGRPPRLPRPRPRPLVIPRP reaches 0.003 or more?
Ans. yes (1)

Qu. Evaluate RRIRCRPPRLPRPRPRPMVAPRP : shrunken log2 fold change at minimum 0.003?
Ans. yes (1)

Qu. Could you please find out whether RRIRFRPPRLPRPRPRPWASPRP has shrunken log2 fold change that meets 0.003 or exceeds it?
Ans. no (0)

Qu. Answer whether shrunken log2 fold change of RRIRNRPPRLPRPRPRPAGLPRP is greater than or equal to 0.003.
Ans. no (0)

Qu. Answer whether shrunken log2 fold change of RRIRHRPPRLPRPRPRPVLPPRP is greater than or equal to 0.003.
Ans. no (0)

Qu. Does the sequence RRIRTRPPRLPRPRPRPGMHPRP have recorded shrunken log2 fold change that is 0.003 or more?
Ans. yes (1)

Qu. Form field: shrunken log2 fold change at least 0.003? Entry: RRIRWRPPRLPRPRPRPKHPPRP
Ans. yes (1)

Qu. Hello, I need to know if RRIRKRPPRLPRPRPRPKGPPRP has measured shrunken log2 fold change not below 0.003. Thanks!
Ans. yes (1)

Qu. Test whether the sequence RRIRRRPPRLPRPRPRPVVKPRP records shrunken log2 fold change of 0.003 or higher.
Ans. no (0)

Qu. Given RRIRNRPPRLPRPRPRPKVCPRP , state whether its shrunken log2 fold change is at least 0.003.
Ans. no (0)

Qu. # check: shrunken log2 fold change of RRIRMRPPRLPRPRPRPRDMPRP is greater than or equal to 0.003
Ans. yes (1)

Qu. Could you tell me if the measured shrunken log2 fold change of RRIRGRPPRLPRPRPRPRKCPRP reaches 0.003 or more?
Ans. yes (1)

Qu. Would you say RRIRPRPPRLPRPRPRPECGPRP shows shrunken log2 fold change at minimum 0.003?
Ans. yes (1)

###

Please go through the items and note down their shrunken log2 fold change.
# Tested on: Escherichia coli TOP10;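 also: peptides expressed intracellularly from a pBAD plasmid library in pooled LB shake-flask culture, induced with 0.3% L-arabinose, DNA abundance read by NGS, three biological replicates, DESeq2 with apeglm shrinkage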
# assayDetails: shrunken log2 fold change of peptide-encoding DNA abundance (4.5 h post-induction vs induction); higher = less antimicrobial activity (less host growth inhibition)
# conditionNotes: time post-induction: 4.5 h; library: site-saturation at positions 5, 18, 19, 20

shrunken log2 fold change for RRIRPRPPRLPRPRPRPWCRPRP is 0.0933

RRIRVRPPRLPRPRPRPYMLPRP has a reported shrunken log2 fold change of -0.71

Note to self: shrunken log2 fold change recorded for RRIRIRPPRLPRPRPRPLQWPRP was -0.013

Recorded result, RRIRQRPPRLPRPRPRPEPQPRP , shrunken log2 fold change: 0.00762

So, RRIRDRPPRLPRPRPRPHYGPRP ? Its shrunken log2 fold change was -0.192

Looking up RRIRRRPPRLPRPRPRPDMTPRP , I see its shrunken log2 fold change listed as 0.0544

Record RRIRDRPPRLPRPRPRPTYSPRP , field shrunken log2 fold change: -0.757

Notebook: RRIRMRPPRLPRPRPRPCGPPRP , shrunken log2 fold change read as 0.481

// shrunken log2 fold change value for RRIRPRPPRLPRPRPRPNWYPRP : -0.338

Entry under test: RRIRQRPPRLPRPRPRPRWTPRP . Its shrunken log2 fold change was 0.25

Per the record, RRIRERPPRLPRPRPRPGHLPRP has shrunken log2 fold change of -0.0138

Lookup result for RRIRQRPPRLPRPRPRPRDNPRP ; measured shrunken log2 fold change: -0.0667

Noted for RRIRCRPPRLPRPRPRPKDLPRP : its shrunken log2 fold change reads -0.46

Lab note: measured shrunken log2 fold change of RRIRLRPPRLPRPRPRPVSKPRP was -0.181

Notebook: RRIRKRPPRLPRPRPRPAMVPRP , shrunken log2 fold change read as 0.87

For this sequence ( RRIRVRPPRLPRPRPRPDQKPRP ), measured shrunken log2 fold change is 0.002

shrunken log2 fold change reading for RRIRHRPPRLPRPRPRPYCEPRP : -0.114

Looking up RRIRQRPPRLPRPRPRPWRYPRP , I found its shrunken log2 fold change recorded as 0.0785

Lab note: measured shrunken log2 fold change of RRIRCRPPRLPRPRPRPVHMPRP was 0.0385

shrunken log2 fold change for RRIRSRPPRLPRPRPRPHLIPRP is -0.303

The reported value for RRIRARPPRLPRPRPRPDAGPRP in terms of shrunken log2 fold change is 0.94

Lab note: measured shrunken log2 fold change of RRIRHRPPRLPRPRPRPGSDPRP was -0.014

What the record says about RRIRARPPRLPRPRPRPPISPRP : shrunken log2 fold change is 0.027

Form: sequence = RRIRRRPPRLPRPRPRPLFTPRP ; shrunken log2 fold change = 1.61

Recorded shrunken log2 fold change (sequence RRIRGRPPRLPRPRPRPIKVPRP ): 0.356

// RRIRQRPPRLPRPRPRPKFQPRP : shrunken log2 fold change value = 0.022

Lab note: measured shrunken log2 fold change of RRIRDRPPRLPRPRPRPFPPPRP was -0.113

The recorded shrunken log2 fold change for RRIRTRPPRLPRPRPRPDTHPRP is -0.424

For record RRIRHRPPRLPRPRPRPKRVPRP the listed shrunken log2 fold change is -0.0983

Kindly note the recorded shrunken log2 fold change for RRIRNRPPRLPRPRPRPAYGPRP , which is 0.118

What the record says about RRIRSRPPRLPRPRPRPVMEPRP : shrunken log2 fold change is -0.0868

Lab note: measured shrunken log2 fold change of RRIRDRPPRLPRPRPRPGTFPRP was 0.00435

// sample RRIRVRPPRLPRPRPRPCRDPRP , its shrunken log2 fold change was -0.4

Notebook: RRIRKRPPRLPRPRPRPNHEPRP , shrunken log2 fold change read as -0.0766

Kindly note the recorded shrunken log2 fold change for RRIRKRPPRLPRPRPRPWYGPRP , which is -0.188

So, RRIRPRPPRLPRPRPRPVCCPRP ? Its shrunken log2 fold change was 0.122

Sample RRIRSRPPRLPRPRPRPWIDPRP ; shrunken log2 fold change observed: -0.615

The value of shrunken log2 fold change measured for the sequence RRIRFRPPRLPRPRPRPDHSPRP turned out to be -0.0664

The reported shrunken log2 fold change of the sequence RRIRQRPPRLPRPRPRPMTWPRP was -0.0225

Value of shrunken log2 fold change reported for the sequence RRIRQRPPRLPRPRPRPCMYPRP is -0.166

Recorded shrunken log2 fold change (sequence RRIRGRPPRLPRPRPRPFKEPRP ): -0.0428

Lookup result for RRIRERPPRLPRPRPRPKYAPRP ; measured shrunken log2 fold change: 0.0159

Please fill in: shrunken log2 fold change reported for RRIRFRPPRLPRPRPRPHCVPRP = -0.216

Value of shrunken log2 fold change reported for the sequence RRIRRRPPRLPRPRPRPTVAPRP is 0.699

Please fill in: shrunken log2 fold change reported for RRIRCRPPRLPRPRPRPKYYPRP = 0.167

Memo: RRIRFRPPRLPRPRPRPMWVPRP , reported shrunken log2 fold change: -0.00617

Per the record, RRIRNRPPRLPRPRPRPIISPRP has shrunken log2 fold change of 0.0108

Notebook: RRIRQRPPRLPRPRPRPGVVPRP , shrunken log2 fold change read as 0.000417

So for RRIRFRPPRLPRPRPRPPPIPRP , the logged shrunken log2 fold change turned out to be 1.02

Note to self: shrunken log2 fold change recorded for RRIRERPPRLPRPRPRPLGWPRP was 0.335

// RRIRIRPPRLPRPRPRPNAVPRP : shrunken log2 fold change value = -0.266

RRIRFRPPRLPRPRPRPADTPRP has a reported shrunken log2 fold change of -0.109

What the record says about RRIRIRPPRLPRPRPRPAAFPRP : shrunken log2 fold change is -0.234

Briefly, shrunken log2 fold change measured for RRIRHRPPRLPRPRPRPEGGPRP : -0.0289

# sequence RRIRERPPRLPRPRPRPHHNPRP ; its shrunken log2 fold change = -0.817

GET /value?item= RRIRIRPPRLPRPRPRPIIYPRP &field=shrunken log2 fold change returns -0.396
